- procedureDetails: AUC (0 to infinity) in adult human with hepatic impairment at 6 mg/kg, iv administered as single dose 30 mins infusion
- Format: ADME, organism-based
- Design: time infinity, dose 6 mg/kg, route intravenous
- protocolConditions: plasma
readoutType: AUC(0-inf) (µg·h/mL)
API: value field is a number in µg·h/mL; no unit string.

Enquiry: Query (compound): `CCCCCCCCCC(=O)N[C@@H](Cc1c[nH]c2ccccc12)C(=O)N[C@H](CC(N)=O)C(=O)N[C@@H](CC(=O)O)C(=O)N[C@@H]1C(=O)NCC(=O)N[C@@H](CCCN)C(=O)N[C@@H](CC(=O)O)C(=O)N[C@H](C)C(=O)N[C@@H](CC(=O)O)C(=O)NCC(=O)N[C@H](CO)C(=O)N[C@@H]([C@H](C)CC(=O)O)C(=O)N[C@@H](CC(=O)c2ccccc2N)C(=O)O[C@@H]1C` ; field requested: AUC(0-inf)
Return: 867

Origin of values: ChEMBL document CHEMBL1649119
